src = patent US9290511B2

- System Name: Kir3.1/3.4 (Rattus norvegicus, UniProt P48548+P63251)
- Construct: expressed in transfected cells
- Sequence (P63251 1-501): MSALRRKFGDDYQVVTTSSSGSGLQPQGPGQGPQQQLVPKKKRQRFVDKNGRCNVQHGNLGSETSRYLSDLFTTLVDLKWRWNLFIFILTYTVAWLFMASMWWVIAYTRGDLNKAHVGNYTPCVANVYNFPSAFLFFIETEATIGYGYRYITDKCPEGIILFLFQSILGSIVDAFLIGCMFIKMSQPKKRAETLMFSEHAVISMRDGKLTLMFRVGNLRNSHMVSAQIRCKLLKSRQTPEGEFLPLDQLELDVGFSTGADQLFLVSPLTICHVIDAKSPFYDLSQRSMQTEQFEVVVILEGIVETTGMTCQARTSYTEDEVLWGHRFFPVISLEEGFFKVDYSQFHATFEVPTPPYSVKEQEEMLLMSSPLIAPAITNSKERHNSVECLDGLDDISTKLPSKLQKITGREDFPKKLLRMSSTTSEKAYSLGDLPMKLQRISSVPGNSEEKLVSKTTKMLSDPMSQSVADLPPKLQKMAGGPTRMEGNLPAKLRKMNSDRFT
- Sequence (P48548 1-419): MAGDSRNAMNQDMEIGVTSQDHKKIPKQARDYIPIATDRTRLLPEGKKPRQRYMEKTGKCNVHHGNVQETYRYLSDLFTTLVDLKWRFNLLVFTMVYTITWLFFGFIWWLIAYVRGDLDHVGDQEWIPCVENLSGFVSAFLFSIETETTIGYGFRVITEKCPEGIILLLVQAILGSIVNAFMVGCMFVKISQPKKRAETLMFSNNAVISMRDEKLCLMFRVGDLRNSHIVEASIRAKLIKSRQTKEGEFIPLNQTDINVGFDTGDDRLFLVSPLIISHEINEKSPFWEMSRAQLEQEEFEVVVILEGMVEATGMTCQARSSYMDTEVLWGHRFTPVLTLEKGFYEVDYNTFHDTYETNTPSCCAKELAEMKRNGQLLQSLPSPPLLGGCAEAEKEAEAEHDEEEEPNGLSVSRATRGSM
- Assay: Kir3.1/3.4 Q-patch Method (automated patch clamp, Sophion Q-patch)
- Assay type: cell-based
- Experimental Context: HEK293 cells stably-expressing Kir3.1/3.4; current at -120 mV; QPatch-16 or QPatch-48
# maps each entry to its IC50

>  <Compound>
NC(=O)C1CCN(c2nc(N3C4CCC3COC4)nc3scc(-c4ccccc4Cl)c23)C1 (stereo not shown) [Example 415]

>  <IC50>
0.5 to 3 µM

$$$$
>  <Compound>
COc1ccccc1-c1csc2nc(N3C4CCC3CC(OC)C4)nc(N3C4CCC3COC4)c12 (stereo not shown) [Example 397]

>  <IC50>
< 0.5 µM

$$$$
>  <Compound>
COC1CC2CCC(C1)N2c1nc(N2CCCC(C(N)=O)C2)nc2scc(-c3ccccc3Cl)c12 (stereo not shown) [Example 373]

>  <IC50>
< 0.5 µM

$$$$
>  <Compound>
COc1ccccc1-c1csc2nc(N3C4CCC3COC4)nc(N3C4CCC3CC(OC)C4)c12 (stereo not shown) [Example 379]

>  <IC50>
0.5 to 3 µM

$$$$

====

- System Name: Kir3.1/3.4 (Rattus norvegicus, UniProt P48548+P63251)
- Construct: expressed in transfected cells
- Sequence (P63251 1-501): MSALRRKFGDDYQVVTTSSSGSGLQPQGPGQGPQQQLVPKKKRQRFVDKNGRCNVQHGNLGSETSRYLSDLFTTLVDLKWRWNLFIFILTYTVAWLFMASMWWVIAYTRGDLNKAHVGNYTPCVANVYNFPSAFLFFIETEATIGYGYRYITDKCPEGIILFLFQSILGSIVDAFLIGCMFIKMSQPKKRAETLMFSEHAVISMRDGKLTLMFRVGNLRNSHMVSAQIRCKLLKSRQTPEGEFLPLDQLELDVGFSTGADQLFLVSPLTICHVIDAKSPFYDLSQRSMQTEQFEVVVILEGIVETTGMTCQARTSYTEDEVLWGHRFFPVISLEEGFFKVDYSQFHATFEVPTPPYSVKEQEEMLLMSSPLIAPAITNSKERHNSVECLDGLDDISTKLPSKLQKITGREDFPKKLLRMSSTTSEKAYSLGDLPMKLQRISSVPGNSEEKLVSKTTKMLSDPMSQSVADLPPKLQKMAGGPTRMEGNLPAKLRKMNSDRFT
- Sequence (P48548 1-419): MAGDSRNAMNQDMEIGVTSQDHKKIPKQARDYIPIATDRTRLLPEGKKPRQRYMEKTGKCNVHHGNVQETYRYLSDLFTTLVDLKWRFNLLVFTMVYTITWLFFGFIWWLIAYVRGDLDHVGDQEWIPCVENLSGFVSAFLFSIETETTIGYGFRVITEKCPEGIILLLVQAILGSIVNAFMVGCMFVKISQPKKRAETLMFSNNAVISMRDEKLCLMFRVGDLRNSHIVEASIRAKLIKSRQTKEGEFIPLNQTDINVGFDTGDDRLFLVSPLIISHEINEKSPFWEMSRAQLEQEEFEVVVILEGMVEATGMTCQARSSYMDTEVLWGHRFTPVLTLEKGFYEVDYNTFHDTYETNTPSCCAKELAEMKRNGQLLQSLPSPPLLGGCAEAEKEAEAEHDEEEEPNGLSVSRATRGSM
- Assay: Kir3.1/3.4 Electrophysiology Method (manual whole-cell patch clamp)
- Type: cell-based
- Experimental Context: Electrophysiology Method (TABLE 1)

>  <Compound>
OCCN(CCO)CC1CCN(c2ncnc3scc(C4CCCCC4)c23)CC1

>  <IC50>
< 500 nM

$$$$
>  <Compound>
O=C(NCCN1CCCC1)C1CCN(c2ncnc3scc(-c4ccccc4)c23)C1 (stereo not shown)

>  <IC50>
500 to 3000 nM

$$$$
>  <Compound>
F[C@@H]1CCN(CCOCC2CCN(c3ncc4c(-c5ccccc5)csc4n3)CC2)C1

>  <IC50>
< 500 nM

$$$$
>  <Compound>
F[C@H]1CCN(CC2CCN(c3ncnc4scc(-c5ccccc5)c34)CC2)C1

>  <IC50>
500 to 3000 nM

$$$$
>  <Compound>
c1ccc(-c2csc3nc(N4CCC(COCCN5CCCC5)C4)ncc23)cc1 (stereo not shown)

>  <IC50>
< 500 nM

$$$$
>  <Compound>
CC(=O)NC1CCN(c2nc(N3CCC(COCCN4CCOCC4)CC3)c3c(-c4ccccc4)csc3n2)C1 (stereo not shown)

>  <IC50>
< 500 nM

$$$$
>  <Compound>
c1ccc(-c2csc3ncnc(N4CC5C(COCCN6CCOCC6)C5C4)c23)cc1 (stereo not shown)

>  <IC50>
500 to 3000 nM

$$$$
>  <Compound>
CN1CCN(c2nc(N3CCC(CNC4(CO)CCCC4)CC3)c3c(-c4ccccc4)csc3n2)CC1

>  <IC50>
500 to 3000 nM

$$$$
>  <Compound>
F[C@@H]1CCN(CCOCC2CCN(c3ncnc4scc(-c5ccccc5)c34)CC2)C1

>  <IC50>
< 500 nM

$$$$
>  <Compound>
NC(=O)C1CCN(c2nc(N3CCC(COCCN4CCCC4)CC3)c3c(-c4ccccc4)csc3n2)C1 (stereo not shown)

>  <IC50>
< 500 nM

$$$$
>  <Compound>
OC1CCN(c2nc(NCCN3CCCC3)nc3scc(-c4ccccc4)c23)C1 (stereo not shown)

>  <IC50>
500 to 3000 nM

$$$$
>  <Compound>
c1ccc(-c2csc3nc(N4CCC(COCCN5CCCC5)CC4)nc(N4CCOCC4)c23)cc1

>  <IC50>
< 500 nM

$$$$
>  <Compound>
CN(C)CCCNCC1CCN(c2ncnc3scc(-c4ccccc4)c23)CC1

>  <IC50>
< 500 nM

$$$$
>  <Compound>
COCCN1CCN(c2nc(N3CCC(CN(C)C4CCN(C)C4)CC3)c3c(-c4ccccc4)csc3n2)CC1 (stereo not shown)

>  <IC50>
< 500 nM

$$$$
>  <Compound>
Fc1ccc(-c2csc3nc(Cl)nc(N4CCC(COCCN5CCCC5)CC4)c23)cc1

>  <IC50>
< 500 nM

$$$$
>  <Compound>
NC(=O)C1CN(c2nc(N3CCC(COCCN4CCCC4)CC3)nc3scc(-c4ccccc4)c23)CCO1 (stereo not shown)

>  <IC50>
< 500 nM

$$$$
>  <Compound>
c1ccc(-c2csc3ncnc(N4C5CCC4CC(CN4CCCC4)C5)c23)cc1 (stereo not shown)

>  <IC50>
< 500 nM

$$$$
>  <Compound>
CN1CCCC1CNCC1CCN(c2ncnc3scc(-c4ccccc4)c23)CC1 (stereo not shown)

>  <IC50>
< 500 nM

$$$$
>  <Compound>
FC(F)(F)C1CCN(CC2CCN(c3ncnc4scc(-c5ccccc5)c34)CC2)CC1

>  <IC50>
500 to 3000 nM

$$$$
>  <Compound>
CN(CC1CCN(c2ncnc3scc(-c4ccccc4)c23)CC1)CC1CCCN1 (stereo not shown)

>  <IC50>
< 500 nM

$$$$
>  <Compound>
CC(C)(C)NCC1CC2CCC(C1)N2c1ncnc2scc(-c3ccccc3)c12 (stereo not shown)

>  <IC50>
< 500 nM

$$$$
>  <Compound>
CN1CCC(N(C)C(=O)C2CCCN(c3ncnc4scc(-c5ccccc5)c34)C2)C1 (stereo not shown)

>  <IC50>
500 to 3000 nM

$$$$
>  <Compound>
c1ccc(-c2csc3ncnc(N4CCC(CNCC5CC5)CC4)c23)cc1

>  <IC50>
< 500 nM

$$$$
>  <Compound>
c1ccc(-c2csc3ncnc(N4CCC(OCCN5CCCC5)CC4)c23)cc1

>  <IC50>
< 500 nM

$$$$
>  <Compound>
CC1CCN(CC2CCN(c3ncnc4scc(-c5ccccc5)c34)CC2)C1 (stereo not shown)

>  <IC50>
500 to 3000 nM

$$$$
>  <Compound>
c1ccc(-c2csc3nc(C4CC4)nc(N4CCC(COCCN5CCCC5)CC4)c23)cc1

>  <IC50>
< 500 nM

$$$$
>  <Compound>
CN(C)[C@@H]1CCN(CC2CCN(c3ncnc4scc(-c5ccccc5)c34)CC2)C1

>  <IC50>
< 500 nM

$$$$
>  <Compound>
CN(C)C1CCN(c2nc(NCCN3CCCC3)nc3scc(-c4ccccc4)c23)CC1

>  <IC50>
500 to 3000 nM

$$$$
>  <Compound>
Cc1csc2ncnc(N3CC(CNCCC4CCCN4C)CC3c3ccccc3)c12 (stereo not shown)

>  <IC50>
< 500 nM

$$$$
>  <Compound>
CN(CC1CCN(c2ncnc3scc(-c4ccccc4)c23)CC1)C1CCC1

>  <IC50>
< 500 nM

$$$$
>  <Compound>
c1ccc(-c2csc3ncnc(N4CCC(CNCc5ccccn5)CC4)c23)cc1

>  <IC50>
< 500 nM

$$$$
>  <Compound>
CC(=O)Nc1sc2nc(N3CCC(COCCN4CCCC4)CC3)ncc2c1-c1ccccc1

>  <IC50>
500 to 3000 nM

$$$$
>  <Compound>
NC(=O)[C@@H]1CCN(CCN2CCN(c3ncc4c(-c5ccccc5)csc4n3)CC2)C1

>  <IC50>
500 to 3000 nM

$$$$
>  <Compound>
c1nc(N2CCC(COCCN3CCCC3)CC2)c2c(-c3ccsc3)csc2n1

>  <IC50>
< 500 nM

$$$$
